# IC50 values compiled below
System: CDK2/Cyclin E (Homo sapiens, UniProt P24941)
Test Protocol: CDK2/Cyclin E biochemical phosphorylation assay (Caliper mobility shift)
Experimental Context: apparent IC50; 1.0 mM ATP or ATP Km; 1.25 nM enzyme; 25° C.; read-out: CDK2/cyclin E1 IC50
Measurement Name: IC50

{"Compound": "FC(F)Oc1cc(Nc2cnc3cnn([C@H](c4ccccc4)C4COC4)c3n2)n[nH]1 (single isomer, unassigned) [Example 162]", "System": "CDK2/Cyclin E (Homo sapiens, UniProt P24941)", "Result": "> 0.1 µM"}
{"Compound": "C[C@@H](CO)Cn1ncc2ncc(Nc3cc(OC(F)F)[nH]n3)nc21", "System": "CDK2/Cyclin E (Homo sapiens, UniProt P24941)", "Result": "0.03 to 0.1 µM"}
{"Compound": "C[C@@H](c1cncc(F)c1)n1ncc2ncc(Nc3cc(OC(F)F)[nH]n3)nc21 (single isomer, unassigned) [Example 153]", "System": "CDK2/Cyclin E (Homo sapiens, UniProt P24941)", "Result": "0.01 to 0.02 µM"}
{"Compound": "C[C@H]([C@@H]1CCOC1)n1ncc2ncc(Nc3cc(OC(F)F)[nH]n3)nc21 (single isomer, unassigned)", "System": "CDK2/Cyclin E (Homo sapiens, UniProt P24941)", "Result": "0.02 to 0.03 µM"}
{"Compound": "N#Cc1nn(CC2CCOCC2)c2nc(Nc3cc(OC(F)F)[nH]n3)cnc12", "System": "CDK2/Cyclin E (Homo sapiens, UniProt P24941)", "Result": "≤ 0.01 µM"}
{"Compound": "C[C@H]([C@H]1CCOC1)n1ncc2ncc(Nc3cc(OC(F)F)[nH]n3)nc21 (single isomer, unassigned)", "System": "CDK2/Cyclin E (Homo sapiens, UniProt P24941)", "Result": "≤ 0.01 µM"}
{"Compound": "C[C@@H](c1cccnc1Cl)n1ncc2ncc(Nc3cc(OC(F)F)[nH]n3)nc21", "System": "CDK2/Cyclin E (Homo sapiens, UniProt P24941)", "Result": "≤ 0.01 µM"}
{"Compound": "FC(F)Oc1cc(Nc2cnc3cnn(C[C@H]4CCCO4)c3n2)n[nH]1", "System": "CDK2/Cyclin E (Homo sapiens, UniProt P24941)", "Result": "0.03 to 0.1 µM"}
{"Compound": "COc1cc(Nc2cnc3cnn([C@@H](C)C4CCOCC4)c3n2)n[nH]1", "System": "CDK2/Cyclin E (Homo sapiens, UniProt P24941)", "Result": "≤ 0.01 µM"}
{"Compound": "C[C@@H](c1cnccc1F)n1ncc2ncc(Nc3cc(OC(F)F)[nH]n3)nc21 (single isomer, unassigned) [Example 174]", "System": "CDK2/Cyclin E (Homo sapiens, UniProt P24941)", "Result": "> 0.1 µM"}
{"Compound": "C[C@@H](O)c1nn([C@@H](C)C2CCOCC2)c2nc(Nc3cc(OC(F)F)[nH]n3)cnc12 (single isomer, unassigned) [Example 182]", "System": "CDK2/Cyclin E (Homo sapiens, UniProt P24941)", "Result": "≤ 0.01 µM"}
{"Compound": "OC1(Cn2ncc3ncc(Nc4cc(OC(F)F)[nH]n4)nc32)CCOCC1", "System": "CDK2/Cyclin E (Homo sapiens, UniProt P24941)", "Result": "≤ 0.01 µM"}
{"Compound": "[2H]C([2H])([2H])Oc1cc(Nc2cnc3cnn(Cc4cccnc4)c3n2)n[nH]1", "System": "CDK2/Cyclin E (Homo sapiens, UniProt P24941)", "Result": "0.01 to 0.02 µM"}
{"Compound": "OC[C@@H](c1cccnc1)n1ncc2ncc(Nc3cc(OC(F)F)[nH]n3)nc21", "System": "CDK2/Cyclin E (Homo sapiens, UniProt P24941)", "Result": "0.02 to 0.03 µM"}
{"Compound": "COc1cc(Nc2cnc3c(F)nn([C@@H](C)C4CCOCC4)c3n2)n[nH]1", "System": "CDK2/Cyclin E (Homo sapiens, UniProt P24941)", "Result": "≤ 0.01 µM"}
{"Compound": "FC(F)Oc1cc(Nc2cnc3cnn(CC4(C(F)(F)F)CCOCC4)c3n2)n[nH]1", "System": "CDK2/Cyclin E (Homo sapiens, UniProt P24941)", "Result": "0.03 to 0.1 µM"}
{"Compound": "COc1cc(Nc2cnc3cnn(C(C)c4cccnn4)c3n2)n[nH]1 (single isomer, unassigned) [Example 32]", "System": "CDK2/Cyclin E (Homo sapiens, UniProt P24941)", "Result": "0.02 to 0.03 µM"}
{"Compound": "FC(F)Oc1cc(Nc2cnc3cnn(C[C@H]4CCCOC4)c3n2)n[nH]1 (single isomer, unassigned) [Example 141]", "System": "CDK2/Cyclin E (Homo sapiens, UniProt P24941)", "Result": "≤ 0.01 µM"}
{"Compound": "Cc1nn(CC2CCOCC2)c2nc(Nc3cc(OC(F)F)[nH]n3)cnc12", "System": "CDK2/Cyclin E (Homo sapiens, UniProt P24941)", "Result": "≤ 0.01 µM"}
{"Compound": "FC(F)Oc1cc(Nc2cnc3cnn([C@H](C4CCOCC4)C4CC4)c3n2)n[nH]1 (single isomer, unassigned) [Example 157]", "System": "CDK2/Cyclin E (Homo sapiens, UniProt P24941)", "Result": "0.03 to 0.1 µM"}

* * *

System: CDK2/Cyclin E (Homo sapiens, UniProt P24941)
Test Protocol: CDK2/Cyclin E biochemical phosphorylation assay (Caliper mobility shift)
Experimental Context: apparent IC50; 1.0 mM ATP or ATP Km; 1.25 nM enzyme; 25° C.; read-out: CDK2/cyclin E1 IC50

{"Compound": "COc1cc(Nc2cnc3cnn(Cc4cccnc4F)c3n2)n[nH]1", "IC50": "≤ 10 nM"}
{"Compound": "C[C@H](c1cccc(F)n1)n1ncc2ncc(Nc3cc(OC(F)F)[nH]n3)nc21 (single isomer, unassigned) [Example 155]", "IC50": "30 to 100 nM"}
{"Compound": "C[C@@H](c1cccnc1)n1nc(Cl)c2ncc(Nc3cc(OC(F)F)[nH]n3)nc21", "IC50": "≤ 10 nM"}
{"Compound": "C[C@@H]([C@H]1CCCOC1)n1ncc2ncc(Nc3cc(OC(F)F)[nH]n3)nc21 (single isomer, unassigned) [Example 217]", "IC50": "30 to 100 nM"}
{"Compound": "COc1cc(Nc2cnc3cnn(Cc4cncs4)c3n2)n[nH]1", "IC50": "20 to 30 nM"}
{"Compound": "COc1cc(Nc2cnc3cnn([C@@H](CF)C4CCOCC4)c3n2)n[nH]1 (single isomer, unassigned) [Example 194]", "IC50": "≤ 10 nM"}
{"Compound": "FC(F)Oc1cc(Nc2cnc3cnn(Cc4cscn4)c3n2)n[nH]1", "IC50": "30 to 100 nM"}
{"Compound": "CC(C)(C1CC1)n1ncc2ncc(Nc3cc(OC(F)F)[nH]n3)nc21", "IC50": "≤ 10 nM"}
{"Compound": "FC(F)Oc1cc(Nc2cnc3cnn(Cc4cccnn4)c3n2)n[nH]1", "IC50": "≤ 10 nM"}
{"Compound": "C[C@@H](O)c1nn([C@@H](C)c2cccnc2)c2nc(Nc3cc(OC(F)F)[nH]n3)cnc12 (single isomer, unassigned) [Example 178]", "IC50": "≤ 10 nM"}
{"Compound": "FC(F)Oc1cc(Nc2cnc3cnn(C[C@H]4CCCNC4)c3n2)n[nH]1", "IC50": "20 to 30 nM"}
{"Compound": "CC[C@@H](c1cccnc1)n1ncc2ncc(Nc3cc(OC(F)F)[nH]n3)nc21", "IC50": "≤ 10 nM"}
{"Compound": "FC(F)Oc1cc(Nc2cnc3cnn(C[C@@H]4[C@@H]5COC[C@@H]54)c3n2)n[nH]1", "IC50": "≤ 10 nM"}
{"Compound": "CC[C@@H]([C@@H](C)O)n1ncc2ncc(Nc3cc(OC(F)F)[nH]n3)nc21 (single isomer, unassigned)", "IC50": "> 100 nM"}
{"Compound": "COc1cc(Nc2cnc3cnn(C[C@H]4C[C@@H]4C#N)c3n2)n[nH]1 (single isomer, unassigned) [Example 196]", "IC50": "> 100 nM"}
{"Compound": "O[C@H]1CC[C@@H](Cn2ncc3ncc(Nc4cc(OC(F)F)[nH]n4)nc32)CC1 (single isomer, unassigned) [Example 171]", "IC50": "10 to 20 nM"}
{"Compound": "FC[C@@H](c1ccccn1)n1ncc2ncc(Nc3cc(OC(F)F)[nH]n3)nc21 (single isomer, unassigned)", "IC50": "30 to 100 nM"}
{"Compound": "C[C@@H](c1ncccc1F)n1ncc2ncc(Nc3cc(OC(F)F)[nH]n3)nc21", "IC50": "≤ 10 nM"}
{"Compound": "O[C@H]1C[C@H](n2ncc3ncc(Nc4cc(OC(F)F)[nH]n4)nc32)C1 (single isomer, unassigned) [Example 145]", "IC50": "> 100 nM"}
{"Compound": "FC[C@@H](C1CCOCC1)n1ncc2ncc(Nc3cc(OC(F)F)[nH]n3)nc21 (single isomer, unassigned)", "IC50": "≤ 10 nM"}
{"Compound": "FC(F)Oc1cc(Nc2cnc3cnn(C[C@@]4(F)CCOC4)c3n2)n[nH]1 (single isomer, unassigned) [Example 167]", "IC50": "20 to 30 nM"}
